// data source = patent US20250154169A1

- Tested on: HTT mRNA
- experiment.summary: Splicing RT-qPCR assay, HTT canonical (CJ) and alternative (AJ) junction mRNA
- Type: cell-based, human
- conditions: Homo sapiens, A673 or K562 cells, 24 hours compound treatment, read-out: HTT AJ (AC50, increase in alternative junction mRNA)

{"molecule": "CCNC1CCN(c2ccc(C(=O)Nc3cc(F)c4nc(C)cn4c3)c3nn(CC)cc23)CC1", "AC50": "1 to 10 µM"}
{"molecule": "Cc1cn2cc(NC(=O)c3ccc(N4CCC(NC5(CF)CC5)C4)c4cn(C)nc34)cc(F)c2n1 (stereo not shown)", "AC50": "1 to 10 µM"}
{"molecule": "Cc1cn2cc(NC(=O)c3ccc(N4CCNCC4)c4cn(C)nc34)c(C#N)cc2n1", "AC50": "> 10 µM"}
{"molecule": "CCNC1CCN(c2cc(F)c(C(=O)Nc3cc(F)c4nc(C)cn4c3)c3nn(C)cc23)CC1", "AC50": "0.1 to 1 µM"}

---

- Test system: Target C mRNA
- experiment.summary: Splicing RT-qPCR gene panel, Target C canonical junction (CJ) mRNA
- Type: cell-based, human
- conditions: Homo sapiens, Tables 4A/4B, read-out: Target C (IC50, decrease in CJ mRNA, gene panel)
pIC50: −log10 of the molar value.
recorded.metric: pIC50

{"compound": "COc1c(NC(=O)c2ccc(N3CCNCC3)c3cn(C)nc23)cc(C)c2nn(C)cc12", "recorded.metric": "pIC50", "obs.value": "< 5.00"}
{"compound": "Cc1cn2cc(NC(=O)c3ccc(N4CCC(CN)C4)c4cn(C)nc34)cc(F)c2n1 (stereo not shown)", "recorded.metric": "pIC50", "obs.value": "< 5.00"}
{"compound": "COc1c(NC(=O)c2ccc(N3CC[C@@H](NC4CC4)C3)c3nc(C)nn23)cn2cc(C)nc2c1F", "recorded.metric": "pIC50", "obs.value": "5.00 to 6.00"}
{"compound": "CNC1CCN(c2ccc(C(=O)Nc3cn4cc(C)nc4c(OC)n3)c3nn(C)cc23)C1 (stereo not shown)", "recorded.metric": "pIC50", "obs.value": "< 5.00"}

---

Item-by-item account of IC50
- Tested on: MYB mRNA
- experiment.summary: Splicing RT-qPCR assay, MYB canonical (CJ) and alternative (AJ) junction mRNA
- Assay type: cell-based, human
- conditions: Homo sapiens, 24 h, A673 or K562 cells, 24 hours compound treatment, RT-qPCR; read-out: MYB CJ (IC50, decrease in canonical junction mRNA)

{"molecule": "CCn1cc2c(N3CCN(C)CC3)ccc(C(=O)Nc3cc(F)c4nc(C)cn4c3)c2n1", "IC50": "100 to 1000 nM"}
{"molecule": "Cc1cn2cc(NC(=O)c3ccc(N4CCNCC4)c4cn(C5CCOC5)nc34)cc(F)c2n1 (stereo not shown)", "IC50": "100 to 1000 nM"}
{"molecule": "CCn1cc2c(N3CC[C@@H](NC)C3)cc(F)c(C(=O)Nc3cc(F)c4nc(C)cn4c3)c2n1", "IC50": "< 100 nM"}
{"molecule": "CCn1cc2c(OC3CCNCC3)ccc(C(=O)Nc3cc(F)c4nc(C)cn4c3)c2n1", "IC50": "100 to 1000 nM"}
{"molecule": "Cc1cn2cc(NC(=O)c3ccc(N4CC[C@@H](NC5CC(O)C5)C4)c4cn(C)nc34)cc(F)c2n1 (stereo partly shown)", "IC50": "< 100 nM"}
{"molecule": "Cc1cn2cc(NC(=O)c3ccc(N4CCNCC4)c4cn(C)nc34)c(F)cc2n1", "IC50": "100 to 1000 nM"}
{"molecule": "Cc1cn2cc(NC(=O)c3ccc(N4CCC(CN)CC4)c4cn(C)nc34)cc(F)c2n1", "IC50": "1000 to 10000 nM"}
{"molecule": "CCn1cc2c(N3C[C@@H](C)N[C@@H](C4CC4)C3)ccc(C(=O)Nc3cc(F)c4nc(C)cn4c3)c2n1", "IC50": "100 to 1000 nM"}
{"molecule": "Cc1cn2cc(NC(=O)c3ccc(N4CCNCC4)c4cn(Cc5cncnc5)nc34)cc(F)c2n1", "IC50": "100 to 1000 nM"}
{"molecule": "CCC1CN(c2ccc(C(=O)Nc3cc(F)c4nc(C)cn4c3)c3nn(C)cc23)CCN1 (stereo not shown)", "IC50": "< 100 nM"}
{"molecule": "CCn1cc2c(OC3CCNC3)ccc(C(=O)Nc3cc(F)c4nc(C)cn4c3)c2n1 (stereo not shown)", "IC50": "100 to 1000 nM"}
{"molecule": "Cc1cn2cc(NC(=O)c3ccc(N4CC[C@@H](NC5CC5(C)C)C4)c4cn(C)nc34)cc(F)c2n1 (stereo partly shown)", "IC50": "100 to 1000 nM"}
{"molecule": "CCn1cc2c([C@@]34CCNCC3C4)ccc(C(=O)Nc3cc(F)c4nc(C)cn4c3)c2n1 (stereo partly shown)", "IC50": "100 to 1000 nM"}
{"molecule": "COCCCn1cc2c(N3CCNCC3)ccc(C(=O)Nc3cc(F)c4nc(C)cn4c3)c2n1", "IC50": "< 100 nM"}
{"molecule": "Cn1cc2c(N3CCNCC3)ccc(C(=O)Nc3cc(F)c4nc(CO)oc4c3)c2n1", "IC50": "< 100 nM"}
{"molecule": "CC(=O)Cn1cc2c(N3CCNCC3)ccc(C(=O)Nc3cc(F)c4nc(C)cn4c3)c2n1", "IC50": "1000 to 10000 nM"}

---

- Test system: HTT
- experiment.summary: Protein abundance, HiBit-assay system (Promega), HTT
- Format: cell-based
- conditions: Table 6; HiBiT-modified K562 cells, 24 hours
pIC50: −log10 of the molar value.
The following compounds are listed with their measured pIC50 values.
recorded.metric: pIC50

{"compound": "CCn1cc2c(N3CCC(N[C@H]4C[C@@H](O)C4)CC3)ccc(C(=O)Nc3cc(F)c4nc(C)cn4c3)c2n1 [Compound 559]", "study.system": "HTT", "obs.value": "6.00 to 7.00"}
{"compound": "Cc1cn2cc(NC(=O)c3ccc(N4CCNCC4)c4nc(C)oc34)cc(F)c2n1 [Compound 140]", "study.system": "HTT", "obs.value": "5.00 to 6.00"}
{"compound": "Cc1cn2cc(NC(=O)c3ccc(N4CCNCC4)c4cn(C)nc34)cc(F)c2n1 [Compound 143]", "study.system": "HTT", "obs.value": "> 7.00"}
{"compound": "CCn1cc2c(N3CCC(NC4CC4)C3)cc(F)c(C(=O)Nc3cc(F)c4nc(C)cn4c3)c2n1 (centres unmarked) [Compound 569]", "study.system": "HTT", "obs.value": "5.00 to 6.00"}
{"compound": "CCNC1CCN(c2ccc(C(=O)Nc3cc(F)c4nc(C)cn4c3)c3oc(C)cc23)CC1 [Compound 196]", "study.system": "HTT", "obs.value": "6.00 to 7.00"}
{"compound": "Cc1cn2nc(NC(=O)c3ccc(N4CCNCC4)c4cc(C)oc34)cc(C)c2n1 [Compound 148]", "study.system": "HTT", "obs.value": "5.00 to 6.00"}
{"compound": "Cc1cn2cc(NC(=O)c3c(F)cc(N4CC[C@@H](NC5CC5)C4)c4cn(C)nc34)cc(F)c2n1 [Compound 571]", "study.system": "HTT", "obs.value": "6.00 to 7.00"}
{"compound": "Cc1cn2nc(NC(=O)c3ccc(C4CCNCC4)c4ccoc34)cc(C)c2n1 [Compound 119]", "study.system": "HTT", "obs.value": "5.00 to 6.00"}

---

- Test system: Target C mRNA
- experiment.summary: Splicing RT-qPCR gene panel, Target C canonical junction (CJ) mRNA
- Type: cell-based, human
- conditions: Homo sapiens, Tables 4A/4B, read-out: Target C (IC50, decrease in CJ mRNA, gene panel)
pIC50: −log10 of the molar value.
recorded.metric: pIC50

{"compound": "CCn1cc2c(N3CC[C@@H](N(C)C)C3)ccc(C(=O)Nc3cc(F)c4nc(C)cn4c3)c2n1", "study.system": "Target C mRNA", "obs.value": "< 5.00"}
{"compound": "CCn1cc2c(N3CCC(N)(CC)CC3)ncc(C(=O)Nc3cc(F)c4nc(C)cn4c3)c2n1", "study.system": "Target C mRNA", "obs.value": "5.00 to 6.00"}
{"compound": "CCn1cc2c(N3C[C@@H](C)N[C@@H](C)C3)ncc(C(=O)Nc3cc(F)c4nc(C)cn4c3)c2n1", "study.system": "Target C mRNA", "obs.value": "6.00 to 7.00"}
{"compound": "CN[C@@H]1CCN(c2ccc(C(=O)Nc3cn4cc(C)nc4c(N(C)C)n3)c3nn(C)cc23)C1", "study.system": "Target C mRNA", "obs.value": "< 5.00"}
{"compound": "Cc1cn2cc(NC(=O)c3ccc(N4CCC(NC(C)(C)C)CC4)c4cn(C)nc34)cc(F)c2n1", "study.system": "Target C mRNA", "obs.value": "5.00 to 6.00"}
{"compound": "CCC1CN(c2ccc(C(=O)Nc3cc(F)c4nc(C)cn4c3)c3nn(C)cc23)CCN1 (centres unmarked)", "study.system": "Target C mRNA", "obs.value": "5.00 to 6.00"}
{"compound": "CCNC1CCN(c2ccc(C(=O)Nc3cc(F)c4nc(C)sc4c3)c3nn(C)cc23)CC1", "study.system": "Target C mRNA", "obs.value": "< 5.00"}
{"compound": "Cc1cn2nc(-c3ccc(C(=O)NC4CCNCC4)c4oc(C)cc34)cc(F)c2n1", "study.system": "Target C mRNA", "obs.value": "< 5.00"}
